- target_or_system: Androgen receptor (Homo sapiens) (UniProt P10275)
- Sequence (P10275 whole entry, looked up): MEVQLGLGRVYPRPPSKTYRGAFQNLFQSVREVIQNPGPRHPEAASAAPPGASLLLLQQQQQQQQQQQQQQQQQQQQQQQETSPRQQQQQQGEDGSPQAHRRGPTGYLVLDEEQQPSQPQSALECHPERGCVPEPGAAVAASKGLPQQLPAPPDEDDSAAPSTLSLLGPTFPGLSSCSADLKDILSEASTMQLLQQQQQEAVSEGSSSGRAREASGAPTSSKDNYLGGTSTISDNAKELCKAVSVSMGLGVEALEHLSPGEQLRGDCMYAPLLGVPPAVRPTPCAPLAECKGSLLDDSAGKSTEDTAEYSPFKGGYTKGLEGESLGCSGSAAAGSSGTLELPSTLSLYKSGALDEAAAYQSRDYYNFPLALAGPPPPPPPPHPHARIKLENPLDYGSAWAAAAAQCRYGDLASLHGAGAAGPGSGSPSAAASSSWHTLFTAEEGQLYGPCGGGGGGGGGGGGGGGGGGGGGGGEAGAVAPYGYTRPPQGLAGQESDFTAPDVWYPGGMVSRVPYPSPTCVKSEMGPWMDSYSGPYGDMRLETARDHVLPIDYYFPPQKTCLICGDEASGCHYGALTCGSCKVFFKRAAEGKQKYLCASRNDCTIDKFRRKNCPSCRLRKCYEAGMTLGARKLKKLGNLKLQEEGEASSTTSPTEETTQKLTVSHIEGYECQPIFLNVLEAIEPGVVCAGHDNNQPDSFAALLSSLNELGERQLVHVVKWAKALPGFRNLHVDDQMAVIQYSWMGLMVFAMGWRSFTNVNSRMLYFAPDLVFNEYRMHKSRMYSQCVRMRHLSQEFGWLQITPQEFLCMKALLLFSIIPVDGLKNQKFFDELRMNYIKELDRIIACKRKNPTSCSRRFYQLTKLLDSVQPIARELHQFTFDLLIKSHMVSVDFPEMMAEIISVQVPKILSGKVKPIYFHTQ
- assay_remarks: qHTS assay to identify small molecule antagonists of the androgen receptor (AR) signaling pathway (AID 743035)
- run_parameters: HEK293 AR-UAS-bla, R1881-stimulated, beta-lactamase FRET, 16 h; series mostly up to 58.5 µM
Results filed as inconclusive are left out. The source made the active and inactive calls. The call rests on the fitted dose curve; in most records, active means well fitted inhibition curve with a large enough effect in the signal ratio in the repeat runs (not every such curve was filed as active); inconclusive means weak or mixed curves, or effect the other way; inactive means no such curve, though single readings can be large or run the other way; the % refers to the signal ratio.
Classes to choose from: 1 for active, -1 for inactive

Below are worked cases with known answers.
CC1=C(/C=C/C(C)=C/C=C/C(C)=C/C=C/C=C(C)/C=C/C=C(C)/C=C/C2=C(C)CCCC2(C)C)C(C)(C)CCC1: -1
COc1cc(NS(C)(=O)=O)ccc1Nc1c2ccccc2nc2ccccc12: 1
CN[C@@H]1[C@@H](O[C@H]2O[C@H](CO)[C@@H](N)[C@H](O)[C@H]2O)O[C@H]2C[C@@H](N)[C@@H](O[C@H]3[C@H](O)[C@@H](O)[C@H](N)C[C@@H]3N)O[C@@H]2[C@@H]1O: -1

Each compound tested received a call. Report the one for `Cc1cc(F)ccc1-c1cc(N2CC[C@@H](O)[C@H]2CO)ncc1N(C)C(=O)C(C)(C)c1cc(C(F)(F)F)cc(C(F)(F)F)c1` .
1

// next record `COc1ccc(/C=C/C(=O)O)cc1`
-1

// next record `CCc1ncnc2cc(OC)c(OC)cc12`
-1

// next record `C[C@@H]1C(=O)NC2=Nc3cccc(Cl)c3CN21`
-1

// next record `CCC[C@@H]1C[C@@H](C(=O)N[C@@H]([C@H]2O[C@H](SC)[C@H](OP(=O)(O)O)[C@@H](O)[C@H]2O)[C@H](C)Cl)N(C)C1`
-1

// next record `O=P(O)(O)OP(=O)(O)OP(=O)(O)O`
-1

====

- assay_remarks: qHTS assay to identify small molecule agonists of the estrogen related receptor (ERR) signaling pathway (AID 1224820); on activation: on the % scale 0 is the no-effect control and ±100 the full control effect
- run_parameters: ERR reporter cell line, luciferase agonist mode; series mostly up to 46.1 µM
Records with an inconclusive call do not appear. Activity calls are given as the source filed them. The call rests on the fitted dose curve; in most records, active means well fitted activation curve with a large enough effect in the repeat runs; inconclusive means weak or mixed curves; inactive means no such curve, though single readings can be large or run the other way.
Classes to choose from: t for active, f for inactive

Below are worked cases with known answers.
O=C(O)c1cc([N+](=O)[O-])ccc1NCCCc1ccccc1: f
CC(=O)NCCc1c[nH]c2ccc(O)cc12: f
CCCCCCCCCC[Si](C)(C)CCC(=O)NC(Cc1ccc(C)cc1)c1ccccc1 (stereo not given): f
CC[C@H](C)C(=O)O[C@H]1CCC=C2C=C[C@H](C)[C@H](CC[C@@H]3C[C@@H](O)CC(=O)O3)[C@H]21: t

We next turn to a different molecule, shown below.
Each molecule tested received a call. Report the one for `Oc1ccc2ccccc2c1SSc1c(O)ccc2ccccc12` .
f

====

Entries and their activity change, negative = cytotoxicity values follow.
- assay_remarks: qHTS assay to identify small molecule antagonists of the estrogen receptor alpha (ER-alpha) signaling pathway using the BG1 cell line in the presence of 0.1 nM 17-beta-estradiol - cell viability counter screen (AID 1259241); further: on the % scale 0 is the no-effect control and ±100 the full control effect; nearly all actives have a fitted effect of over 40% in size
- run_parameters: VM7Luc4E2 (BG1) viability, CellTiter-Fluor protease, 22 h, 0.1 nM estradiol agonist added; series mostly up to 92.4 µM
Records with an inconclusive call do not appear. Activity calls are given as the source filed them. Calls come from the whole dose curve; as a rule, active = well fitted cell-killing curve with a large enough effect in the repeat runs; inconclusive = weak or mixed curves, or effect the other way; inactive = flat fitted curve, though single readings scatter.

Sample records with activity change, negative = cytotoxicity:
O=C(O)CN(CCCN(CC(=O)O)CC(=O)O)CC(=O)O: 0.536% [at 19 µM] (inactive)
O=C(O)C[C@H](O)C[C@H](O)/C=C/c1c(C2CC2)nc2ccccc2c1-c1ccc(F)cc1: 6.55% [at 19 µM] (inactive)
COc1cc2ncnc(Nc3cccc(Cl)c3)c2cc1OC: -7.05% [at 19 µM] (inactive)
C=C[Si](C)(C)Cl: -11.6% [at 8.39 µM] (inactive)

Entry `CCCCCCCCCCCCS(=O)(=O)Cl` has what activity change, negative = cytotoxicity?
-4% [at 19 µM] (inactive)

====

- target_or_system: Nuclear receptor subfamily 1 group I member 2 (Homo sapiens)
- assay_remarks: CYP3A4 induction through human pregnane X receptor (PXR) by small molecules, qHTS assay (AID 1346984); further: on the % scale 0 is the no-effect control and ±100 the full control effect; nearly all actives have a fitted effect of over 40% in size
- run_parameters: DPX-2 HepG2 PXR, CYP3A4-luciferin luminescence, 24 h; series mostly up to 46.1 µM
Results filed as inconclusive are left out. Activity calls are given as the source filed them. Calls follow the shape of the dose curve; as a rule, active = well fitted activation curve with a large enough effect in the repeat runs; inconclusive = weak or mixed curves; inactive = no such curve, though single readings can be large or run the other way. Positions of bridges follow the written chain, without caps; N, C: chain ends. Non-standard residues stand in square brackets, D forms with d. Residues, ends and D or L forms follow the SMILES beside them. *: point of attachment. Dab(CH2SO3H) = N[C@@H](CCNCS(=O)(=O)O)C(=O)O; X3 = CC[C@@H](C)CCCCC(=O)*; Dab = NCC[C@H](N)C(=O)O
readout_kind: outcome

CCC(C)(C)c1ccc(CC(C)CN2C[C@@H](C)O[C@@H](C)C2)cc1 (stereo partly drawn): inactive
COC(=O)C(CN)c1c[nH]c2ccc(OC)cc12 (stereo not drawn): inactive
CC[C@@H](C)CCCCC(=O)N[C@@H](CCNCS(=O)(=O)O)C(=O)N[C@H](C(=O)N[C@@H](CCNCS(=O)(=O)O)C(=O)N[C@H]1CCNC(=O)[C@H]([C@@H](C)O)NC(=O)[C@H](CCNCS(=O)(=O)O)NC(=O)[C@H](CCNCS(=O)(=O)O)NC(=O)[C@H](CC(C)C)NC(=O)[C@@H](CC(C)C)NC(=O)[C@H](CCNCS(=O)(=O)O)NC1=O)[C@@H](C)O (X3-[Dab(CH2SO3H)]T[Dab(CH2SO3H)][Dab][Dab(CH2SO3H)][dL]L[Dab(CH2SO3H)][Dab(CH2SO3H)]T; lactam 4-C): inactive

====

- assay_remarks: Caspase-3/7 induction in CHO-K1 cells by small molecules, qHTS cell viability counter screen (AID 1346979); further: nearly all actives have a fitted effect of over 35% in size; further: potency means the concentration at half of the fitted maximal effect
- run_parameters: CellTiter-Fluor fluorescence, 17 h; series mostly up to 92.4 µM
Records with an inconclusive call do not appear. Activity calls are given as the source filed them. Calls follow the shape of the dose curve; as a rule, active = well fitted cell-killing curve with a large enough effect in the repeat runs; inconclusive = weak or mixed curves, or effect the other way; inactive = no such curve, though single readings can be large or run the other way.
readout_kind: Potency

Sample records with Potency:
COC(=O)c1ccc([N+](=O)[O-])cc1: inactive
CCCCCCCCCCCC(=O)Cl: inactive
[Cl][Sc]([Cl])[Cl]: inactive
O=c1cc[nH]cc1: inactive
O=C1OCc2ccccc21: inactive

Entry `Cc1ccc(N=Nc2c(O)ccc3ccccc23)c(C)c1` has what Potency?
7.5 µM (active)

// next record `O=C1OC2(c3ccccc31)c1ccc(O)c(Br)c1Oc1c2ccc(O)c1Br`
27.3 µM (active)

// next record `C/C=C/C(=O)C1=C(C)C=CCC1(C)C`
inactive

// next record `O=c1[nH]cccc1O`
inactive

// next record `CC(=O)Nc1ccc(N=Nc2cc(C)ccc2O)cc1`
68.6 µM (active)

// next record `Oc1ccc2c(c1)CCC2`
inactive

// next record CCc1cccc(C)c1N(C(=O)CS(=O)(=O)O)C(C)COC (centres undefined)
inactive

// next record `CC1(C)[C@H](C(=O)OCc2cccc(Oc3ccccc3)c2)[C@@H]1C=C(Cl)Cl`
inactive

// next record `CCN(CC)c1ccc(N=Nc2ccccc2)cc1`
48.6 µM (active)

====

- assay_remarks: A CellTox Green Cytotoxicity Assay to monitor cytotoxicity in HEK293 cells - 40 hour (AID 1224871); further: on the % scale 0 is the no-effect control and ±100 the full control effect; nearly all actives have a fitted effect of over 45% in size
- run_parameters: CellTox Green fluorescence; series mostly up to 76.8 µM
Records with an inconclusive call do not appear. Active and inactive are the calls of the source. The call rests on the fitted dose curve; in most records, active means well fitted activation curve with a large enough effect in the repeat runs; inconclusive means weak or mixed curves; inactive means flat fitted curve, though single readings scatter.
readout_kind: outcome

Cc1ccc(N=Nc2c(O)ccc3ccccc23)c(C)c1: inactive
CCc1cccc(CC)c1: inactive
CC(C)(c1ccc(Oc2ccc(N)cc2)cc1)c1ccc(Oc2ccc(N)cc2)cc1: inactive
Nc1ccc(Cl)c([N+](=O)[O-])c1: inactive
Oc1ccc(C2(c3ccc(O)c(C4CCCCC4)c3)CCCCC2)cc1C1CCCCC1: inactive

From here, focus on the item given below.
Entry `O=C1OC(=O)c2cc(-c3ccc4c(c3)C(=O)OC4=O)ccc21` has what outcome?
inactive

====

- assay_remarks: qHTS assay to identify small molecule antagonists of the estrogen related receptor signaling pathway with the pleiotropic PPARgamma coactivator (PGC) cell viability counter screen (AID 1224822;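 further: viability read after 17.5 h compound exposure; on the % scale 0 is the no-effect control and ±100 the full control effect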)
- run_parameters: ERR/PGC reporter cell line viability counter screen; series mostly up to 46.1 µM
Inconclusive results are not listed. Activity calls are given as the source filed them. The call rests on the fitted dose curve; in most records, active means well fitted cell-killing curve with a large enough effect in the repeat runs; inconclusive means weak or mixed curves, or effect the other way; inactive means flat fitted curve, though single readings scatter.
Classes to choose from: active, inactive

Nc1nc2c(ncn2[C@@H]2O[C@H](CO)[C@@H](O)[C@@H]2O)c(=O)[nH]1: inactive
CCc1ccc2c(-c3cccc(Cl)c3)nc(=O)n(CC)c2n1: inactive
CCCc1c(-c2ccc(O)cc2)nn(-c2ccc(O)cc2)c1-c1ccc(O)cc1: inactive
O=[N+]([O-])c1cccc2c(Br)[nH]nc12: inactive
Nc1ncnc2c1nc(Sc1ccc(Cl)cc1)n2[C@H]1OC2COP(=O)(O)O[C@@H]2C1O (some centres not stated): inactive
NOCC(=O)O: inactive
NC(N)=NC(N)=Nc1cccc(Cl)c1: inactive
O=c1cc(-c2ccccc2F)[nH]c2cc3c(cc12)OCO3: inactive

Each molecule tested received a call. Report the one for NC(C(=O)N[C@@H]1C(=O)N2C(C(=O)O)=C(Cl)CS[C@H]12)c1ccccc1 (some centres not stated) .
inactive

// next record C=CCN1CCc2cc(O)c(O)cc2C(c2ccccc2)C1 (configuration not stated)
inactive

// next record `O=c1ccn([C@@H]2O[C@H](COP(=O)(O)OP(=O)(O)O)[C@@H](O)[C@H]2O)c(=O)[nH]1`
inactive
